// values below are reported MIC
System: Aspergillus brasiliensis (DSM 1988/ATCC 16404)
assay details: microbe, parasite or virus in culture
Format: cell-based
details: 216 h, A. bras. (9d)
outcome measure: MIC

# molecule, result
measured = [
    ("c1cc(-c2cc[n+](CCCC[n+]3ccc(-c4ccncc4)cc3)cc2)ccn1 [Comp. ex. 3, reference compound]", "200 to 400 µg/mL"),
    ("BrCCCC[n+]1ccc(-c2ccncc2)cc1 [Ex. 5]", "3.1 to 50 µg/mL"),
    ("CC[N+](CC)(CC)C/C=C/C[n+]1ccc(CCCc2cc[n+](C/C=C/C[n+]3ccc(CCCc4cc[n+](C/C=C/C[N+](CC)(CC)CC)cc4)cc3)cc2)cc1 [Ex. 3]", "12.5 to 25 µg/mL"),
    ("CCCCCCCCCCCC[N+](C)(C)CCCC[n+]1ccc(-c2ccncc2)cc1 [Ex. 6.2]", "6.3 µg/mL"),
]

The reported numbers originate from patent US20180161364A1.
